Answer each item with its documented clearance.
- measurement_description: Clearance in male Sprague-Dawley rat at 1 mg/kg, iv
- Type: ADME, organism-based
- experimental_conditions: in vivo
Answers are plain numbers, in mL/min/kg.

Exam item: Which clearance is listed for `O=C(O)C(Cc1ccccc1)(OCc1n[nH]c2cc(-n3nnc4c(F)cc(Br)cc43)ccc12)C(=O)O` ?
Marked response: 2.41

Field: next compound
Exam item: Need clearance of `[2H]C([2H])(OC(Cc1ccccc1)(C(=O)O)C(=O)O)c1n[nH]c2cc(-n3nnc4c(F)cc(Cl)cc43)ccc12` , thanks.
Marked response: 1.93

---

- measurement_description: Cmax in male Sprague-Dawley rat at 10 mg/kg, po
- Type: ADME, organism-based
- experimental_conditions: in vivo
Field: Cmax. Provide a value for each of the compounds that follow.
Numbers only, in ng/mL.

Exam item: Which Cmax value is on record for `O=C(O)C(Cc1ccccc1)(OCc1n[nH]c2cc(-n3nnc4c(F)cc(Br)cc43)ccc12)C(=O)O` ?
Marked response: 124

Consider the additional compound presented here.
Exam item: Param item = `[2H]C([2H])(OC(Cc1ccccc1)(C(=O)O)C(=O)O)c1n[nH]c2cc(-n3nnc4c(F)cc(Cl)cc43)ccc12` ; retrieve measured Cmax.
Marked response: 68.6

---

- measurement_description: Inhibition of recombinant human CD73 expressed in Escherichia coli using AMP as substrate measured after 60 mins by malachite green method
Kindly state IC50 for each of the entries shown.
One number for each entry, in nM.

Answered cases to consult:
Exam item: For the molecule `Cc1cccc(C)c1CC(OCc1n[nH]c2cc(-n3nnc4c(F)cc(Br)cc43)ccc12)(C(=O)O)C(=O)O` , what IC50 is on record?
Marked response: 590

Exam item: Would you mind telling me what IC50 value was observed for `O=C(O)C(Cc1ccccc1)(OCc1n[nH]c2cc(-n3nnc4c(F)cc(C5CCC5)cc43)ccc12)C(=O)O` ?
Marked response: 1420

Exam item: Requested field: IC50. Item: `O=C(O)C(Cc1ccccc1)(OCc1n[nH]c2cc(-n3nnc4c(F)cc(Cl)cc43)ccc12)C(=O)O`
Marked response: 130

Okay, here is my list. What is IC50 for each of these?
1. O=C(O)C(Cc1cn[nH]c1)(OCc1n[nH]c2cc(-n3nnc4c(F)cc(Br)cc43)ccc12)C(=O)O
2. O=C(O)C(Cc1ccc(C(F)(F)F)o1)(OCc1n[nH]c2cc(-n3nnc4c(F)cc(Br)cc43)ccc12)C(=O)O
3. Cn1cc(CC(OCc2n[nH]c3cc(-n4nnc5c(F)cc(Br)cc54)ccc23)(C(=O)O)C(=O)O)c(C(F)(F)F)n1
4. O=C(O)C(Cc1ccc(F)cc1)(OCc1n[nH]c2cc(-n3nnc4c(F)cc(Br)cc43)ccc12)C(=O)O

Marked response:
190
890
1030
540

For each of the items listed, what is its IC50?
1. Cc1cc(F)c2nnn(-c3ccc4c(COC(Cc5ccccc5)(C(=O)O)C(=O)O)n[nH]c4c3)c2c1
2. O=C(O)C(Cc1ccccc1)(OCc1n[nH]c2cc(-n3nnc4c(F)cc(NC5CCCC5)cc43)ccc12)C(=O)O
3. O=C(O)C(OCc1n[nH]c2cc(-n3nnc4c(F)cc(Br)cc43)ccc12)C(=O)O
4. O=C(O)C(Cc1ccccc1)(OCc1n[nH]c2cc(-n3nnc4c(F)cc(Br)cc43)ccc12)C(=O)O
5. CC(C)(C#N)c1ccc(CC(OCc2n[nH]c3cc(-n4nnc5c(F)cc(Br)cc54)ccc23)(C(=O)O)C(=O)O)cc1
6. O=C(O)C(Cc1ccccc1)(OCc1n[nH]c2cc(-n3nnc4c(F)cc(C5CC5)cc43)ccc12)C(=O)O

Marked response:
1. 1100
2. 490
3. 8700
4. 60
5. 690
6. 1430

Please report IC50 for every entry that follows.
1. CC(C)OCc1cc(F)c2nnn(-c3ccc4c(COC(Cc5ccccc5)(C(=O)O)C(=O)O)n[nH]c4c3)c2c1
2. O=C(O)C(Cc1ccccc1)(OCc1n[nH]c2cc(-n3nnc4c(F)cc(NCc5ccccc5C5CC5)cc43)ccc12)C(=O)O
3. O=C(O)C(Cc1ccccc1)(OCc1n[nH]c2cc(-n3nnc4c(F)cc(NCc5ccccc5)cc43)ccc12)C(=O)O
4. CC(=O)Nc1nc(CC(OCc2n[nH]c3cc(-n4nnc5c(F)cc(Br)cc54)ccc23)(C(=O)O)C(=O)O)cs1
5. O=C(O)C(Cc1ccc(C(F)(F)F)cc1)(OCc1n[nH]c2cc(-n3nnc4c(F)cc(Br)cc43)ccc12)C(=O)O
6. O=C(O)C(Cc1ccccc1F)(OCc1n[nH]c2cc(-n3nnc4c(F)cc(Br)cc43)ccc12)C(=O)O
7. Cc1ccccc1CC(OCc1n[nH]c2cc(-n3nnc4c(F)cc(Br)cc43)ccc12)(C(=O)O)C(=O)O

Marked response:
[1550, 700, 330, 530, 2070, 200, 35000]

State recorded IC50 for all listed molecules.
1. C[C@H](Nc1cc(Cl)nc2c1cnn2[C@@H]1O[C@H](COP(=O)(O)CP(=O)(O)O)[C@@H](O)[C@H]1O)c1ccccc1F
2. O=C(O)C(Cc1ccc(-c2ccccc2)cc1)(OCc1n[nH]c2cc(-n3nnc4c(F)cc(Br)cc43)ccc12)C(=O)O
3. C=Cc1cc(F)c2nnn(-c3ccc4c(COC(Cc5ccccc5)(C(=O)O)C(=O)O)n[nH]c4c3)c2c1
4. Nc1cc(F)c2nnn(-c3ccc4c(COC(Cc5ccccc5)(C(=O)O)C(=O)O)n[nH]c4c3)c2c1
5. Cc1nnc(-c2c[nH]c(=O)[nH]c2=O)cc1[C@H]1C[C@@H]1C(C)C
6. O=C(O)C(Cc1ccccc1)(OCc1n[nH]c2cc(-n3nnc4c(F)cc([C@@H](O)CO)cc43)ccc12)C(=O)O
7. Cc1noc(C)c1CC(OCc1n[nH]c2cc(-n3nnc4c(F)cc(Br)cc43)ccc12)(C(=O)O)C(=O)O

Marked response:
1
780
900
200
170
1310
370
